# procedureText: clinical
# experimentalContext: human, in vivo
measuredEndpoint: AUC(0-inf)

Q: For the compound shown here, O=S(=O)(c1ccccc1)c1cnc2c(N3CCNCC3)cccc2c1 , give the reported AUC(0-inf).
Ans: ~9250 ng·h/mL

---

# procedureText: in vivo
# experimentalContext: dog
measuredEndpoint: concentration at 4 h post dose on Day 59

Q: For the compound shown here, O=S(=O)(c1ccccc1)c1cnc2c(N3CCNCC3)cccc2c1 , give the reported concentration at 4 h post dose on Day 59.
Ans: 1570 ng/mL

---

# procedureText: study SB742457/005, pharmacokinetics in elderly subjects
# Assay type: in vivo, human
# experimentalContext: male, human, plasma, 35 mg, elderly males, 35 mg once daily for 28 days; read-out: mean Cmax
measuredEndpoint: Cmax (ng/mL)
Give just the numeric value; ng/mL need not be written.

Q: For the compound shown here, O=S(=O)(c1ccccc1)c1cnc2c(N3CCNCC3)cccc2c1 , give the reported Cmax.
Ans: 181

---

# procedureText: clinical
# experimentalContext: human, in vivo, Cmax
measuredEndpoint: Cmax

Q: For the compound shown here, O=S(=O)(c1ccccc1)c1cnc2c(N3CCNCC3)cccc2c1 , give the reported Cmax.
Ans: ~293 ng/mL

---

# procedureText: clinical
# experimentalContext: human, in vivo
measuredEndpoint: AUC

Q: For the molecule shown here, O=S(=O)(c1ccccc1)c1cnc2c(N3CCNCC3)cccc2c1 , give the reported AUC.
Ans: ~3200 ng·h/mL

---

# procedureText: clinical
# experimentalContext: human, in vivo, mean Cmax
measuredEndpoint: Cmax

Q: For the compound shown here, O=S(=O)(c1ccccc1)c1cnc2c(N3CCNCC3)cccc2c1 , give the reported Cmax.
Ans: ~0.18 µg/mL

---

# procedureText: study SB742457/005, pharmacokinetics in elderly subjects
# Format: in vivo, human
# experimentalContext: human, plasma, oral, 70 mg, multiple dosing with 70 mg, extrapolated given linear human pharmacokinetics; read-out: expected mean Cmax
measuredEndpoint: Cmax

Q: For the compound shown here, O=S(=O)(c1ccccc1)c1cnc2c(N3CCNCC3)cccc2c1 , give the reported Cmax.
Ans: ~360 ng/mL

---

# procedureText: study SB742457/005, pharmacokinetics in elderly subjects
# Format: in vivo, human
# experimentalContext: female, human, plasma, 35 mg, elderly females, 35 mg once daily for 28 days; read-out: mean Cmax
measuredEndpoint: Cmax (ng/mL)
Give just the numeric value; ng/mL need not be written.

Q: For the compound shown here, O=S(=O)(c1ccccc1)c1cnc2c(N3CCNCC3)cccc2c1 , give the reported Cmax.
Ans: 177

---

# procedureText: study SB742457/005, pharmacokinetics in elderly subjects
# Assay type: in vivo, human
# experimentalContext: both sexes, human, plasma, 35 mg, elderly subjects, 35 mg once daily for 28 days; read-out: highest recorded Cmax
measuredEndpoint: Cmax

Q: For the compound shown here, O=S(=O)(c1ccccc1)c1cnc2c(N3CCNCC3)cccc2c1 , give the reported Cmax.
Ans: 0.307 µg/mL
